System: gastric ulcers provoked by a pylorus ligature (Shay rat)
Assay: Protective action on the stomach: antiulcerogenic test in the Shay rat (pylorus ligature + oral 100 mg/kg acetylsalicylic acid), reduction of ulcer index
Type: in vivo
Conditions: dose 0.3 mg/kg p.o., 1 hour before pylorus ligature
MEASUREMENT_TYPE: Protective action on the stomach (rat), reduction in the ulcer index (%)

INSERT INTO results (molecule, data_value) VALUES
  ('COc1c(C)cnc(C[S+]([O-])c2nc3cc(C(F)(F)F)ccc3[nH]2)c1C (stereo not shown) [Serial No. 4]', 30),
  ('COc1ccnc(C[S+]([O-])c2nc3cc(C(F)(F)F)ccc3[nH]2)c1C (stereo not shown) [Serial No. 3]', 25),
  ('COc1ccnc(C[S+]([O-])c2nc3cc(C(F)(F)F)ccc3[nH]2)c1 (stereo not shown) [Serial No. 2]', 29),
  ('COc1ccnc(CSc2nc3cc(C(F)(F)F)ccc3[nH]2)c1C [Serial No. 7]', 30);
